ATTRIBUTE_MEASURED: melting point

The cases that follow already have their melting point on record.
COc1cc2c(Oc3ccc(NS(=O)(=O)c4c(F)cccc4F)cc3OC)ccnc2cc1OCCCN1CCC(C)CC1 :: 98 to 101 °C
COc1cc2c(Oc3ccc(NS(=O)(=O)c4cc(F)ccc4F)cc3F)ccnc2cc1OCCCNC(=O)OC(C)(C)C :: 115 to 118 °C

# input for lookup
Q: Data request, read-out melting point, for COc1cc2c(Oc3ccc(NS(=O)(=O)c4c(Cl)cccc4Cl)cc3Cl)ccnc2cc1OCCCN1CCN(C)CC1
Result: 171 to 172 °C

---

- EXPERIMENTAL_SYSTEM: wild type AXL (wtAXL) receptor tyrosine kinase (Homo sapiens, UniProt P30530)
- Construct: WtAXL cDNA was cloned into vector pLXSN(ESK) and transfected into Phoenix E packaging cells
- Sequence (P30530 26-894): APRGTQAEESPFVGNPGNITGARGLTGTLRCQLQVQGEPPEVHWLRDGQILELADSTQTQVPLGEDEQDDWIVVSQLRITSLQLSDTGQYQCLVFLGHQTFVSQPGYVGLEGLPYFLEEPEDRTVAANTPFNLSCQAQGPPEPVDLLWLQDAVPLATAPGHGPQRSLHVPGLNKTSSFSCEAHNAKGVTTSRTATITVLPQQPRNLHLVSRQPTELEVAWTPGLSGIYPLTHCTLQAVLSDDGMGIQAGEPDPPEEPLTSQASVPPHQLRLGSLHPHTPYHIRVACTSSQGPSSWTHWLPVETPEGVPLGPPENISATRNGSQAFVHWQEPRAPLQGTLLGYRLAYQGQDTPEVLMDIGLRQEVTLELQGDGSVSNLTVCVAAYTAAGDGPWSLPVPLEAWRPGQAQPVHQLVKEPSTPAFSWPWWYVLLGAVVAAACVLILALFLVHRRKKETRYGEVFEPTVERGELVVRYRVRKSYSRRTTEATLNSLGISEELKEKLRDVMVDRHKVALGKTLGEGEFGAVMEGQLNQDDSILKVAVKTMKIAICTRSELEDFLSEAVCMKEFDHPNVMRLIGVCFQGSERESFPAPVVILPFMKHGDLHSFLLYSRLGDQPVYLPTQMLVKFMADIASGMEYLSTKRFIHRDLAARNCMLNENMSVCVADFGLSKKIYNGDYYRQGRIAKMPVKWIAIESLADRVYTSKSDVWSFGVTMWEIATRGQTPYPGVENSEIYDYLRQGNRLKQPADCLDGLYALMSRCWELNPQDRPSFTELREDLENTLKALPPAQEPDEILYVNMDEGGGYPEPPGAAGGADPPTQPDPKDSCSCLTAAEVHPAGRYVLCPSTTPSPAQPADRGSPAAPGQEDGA
- TEST_SUMMARY: NIH-3T3-AXL cellular kinase assay (pY-AXL-ELISA)
- MEASUREMENT_PARAMETERS: NIH-3T3-AXL (clone 22) cells, serum depleted, compounds 1 h; Table Ia
ATTRIBUTE_MEASURED: IC50

COc1cc2c(Oc3ccc(NS(=O)(=O)c4ccc(Cl)s4)cc3F)ccnc2cc1OCCCN(C)C :: < 500 nM
COc1cc2c(Oc3ccc(NS(=O)(=O)c4cccc(OC(F)F)c4)cc3F)ccnc2cc1OCCCN1CCCC(C)C1 (stereo not shown) :: < 500 nM
COc1cc2c(Oc3ccc(NS(=O)(=O)c4cc(Cl)ccc4Cl)cc3F)ccnc2cc1OCCN1CCOCC1 :: < 500 nM

Q: Could you tell me which IC50 is on file for COc1ccc2nccc(Oc3ccc(NS(=O)(=O)c4ccccc4C(F)(F)F)cc3F)c2c1 ?
Result: 500 to 3000 nM
